system tested: human EP2 (Homo sapiens, UniProt P43116)
Sequence (P43116 whole entry): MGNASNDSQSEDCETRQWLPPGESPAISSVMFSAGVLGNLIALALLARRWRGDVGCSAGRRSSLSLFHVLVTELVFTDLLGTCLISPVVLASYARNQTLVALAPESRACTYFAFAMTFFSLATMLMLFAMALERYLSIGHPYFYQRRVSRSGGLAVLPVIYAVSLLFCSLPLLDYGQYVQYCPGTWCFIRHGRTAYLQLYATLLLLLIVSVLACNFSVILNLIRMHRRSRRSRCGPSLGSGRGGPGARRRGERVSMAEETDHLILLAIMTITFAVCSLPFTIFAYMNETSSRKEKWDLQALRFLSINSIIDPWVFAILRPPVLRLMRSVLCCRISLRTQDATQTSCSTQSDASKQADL
pKi: −log10 of the molar value. Where a name gives a salt, the structure may show the parent alone.

| compound | pKi |
| --- | --- |
| C[C@H](NC(=O)[C@H]1CC(F)(F)CCN1CCOc1ccccc1)c1ccc(C(=O)O)cc1 [Example 8, hydrochloride] | 6.02 |

* * *

system tested: human EP4 (Homo sapiens)
Sequence (P35408 whole entry): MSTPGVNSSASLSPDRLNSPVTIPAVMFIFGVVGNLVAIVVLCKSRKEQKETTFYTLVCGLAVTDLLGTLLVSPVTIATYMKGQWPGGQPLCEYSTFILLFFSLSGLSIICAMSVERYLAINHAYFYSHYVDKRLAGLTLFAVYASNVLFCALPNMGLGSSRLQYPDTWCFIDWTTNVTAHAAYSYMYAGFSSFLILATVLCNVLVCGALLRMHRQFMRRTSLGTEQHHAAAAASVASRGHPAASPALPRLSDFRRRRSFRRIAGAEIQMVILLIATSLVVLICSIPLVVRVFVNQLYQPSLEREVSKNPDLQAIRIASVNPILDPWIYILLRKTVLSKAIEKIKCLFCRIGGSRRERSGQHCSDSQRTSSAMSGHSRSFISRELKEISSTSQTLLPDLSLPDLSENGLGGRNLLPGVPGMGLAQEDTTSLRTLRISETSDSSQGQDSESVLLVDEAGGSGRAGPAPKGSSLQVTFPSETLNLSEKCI
assay protocol: In vitro antagonist activity in human whole blood (reversal of PGE2 inhibition of LPS-induced TNFα production)
Assay type: cell-based
Design: Blood is collected from normal volunteer donors into sodium heparin vacutainer tubes; from tissue; host or cells: human whole blood from volunteer donors
applied conditions: 10 μg/mL LPS + 10 nM PGE2, 20-24 hours, geometric mean ± SD, n=6, read-out: IC50 in human blood TNFα induction assay
Structures can show the parent of a compound that is named as a salt.

| molecule | IC50 / nM |
| --- | --- |
| C[C@H](NC(=O)[C@H]1CC(F)(F)CCN1CCOc1ccccc1)c1ccc(C(=O)O)cc1 [Example 8, hydrochloride] | 78.2 |

FYI, the data here is from patent US9776964B2.
